FYI, the data here is from the supplement of paper PMC10567573.

B1: CPXM2 (parent)
chain: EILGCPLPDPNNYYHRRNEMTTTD

- Variants of: B1
- Protocol Text: protein stability index of a GFP-peptide fusion (GPS, HEK-293T) (PSI 1-6); higher = more stable;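 also: lentivirally expressed fusions sorted by FACS into six bins by GFP to DsRed ratio, PSI derived from sequencing read proportions per bin multiplied by bin number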
- Setup Conditions: c terminus: a fixed tail appended
Reported protein stability index is given for each of the following variants.

>  <Construct Sequence>
EILGCPLPDPNNYYHRKNEMTTTD [R17K]

>  <protein stability index>
3.62

$$$$
>  <Construct Sequence>
GILGCPLPDPNNYYHRRNEMTTTD [E1G]

>  <protein stability index>
3.58

$$$$
>  <Construct Sequence>
EILGCPLFDPNNYYHRRNEMTTTD [P8F]

>  <protein stability index>
2.61

$$$$
>  <Construct Sequence>
EILGCPLPDPNTYYHRRNEMTTTD [N12T]

>  <protein stability index>
3.17

$$$$
>  <Construct Sequence>
EILGCPLPDPNNYYHKRNEMTTTD [R16K]

>  <protein stability index>
3.52

$$$$
>  <Construct Sequence>
EIKGCPLPDPNNYYHRRNEMTTTD [L3K]

>  <protein stability index>
4.48

$$$$
>  <Construct Sequence>
EILGCPLPDPNNYYSRRNEMTTTD [H15S]

>  <protein stability index>
3.56

$$$$
>  <Construct Sequence>
EILGCPFPDPNNYYHRRNEMTTTD [L7F]

>  <protein stability index>
3.38

$$$$
>  <Construct Sequence>
RILGCPLPDPNNYYHRRNEMTTTD [E1R]

>  <protein stability index>
3.59

$$$$
>  <Construct Sequence>
EILSCPLPDPNNYYHRRNEMTTTD [G4S]

>  <protein stability index>
3.57

$$$$
>  <Construct Sequence>
EILGCPLPDPNNYYHRRNQMTTTD [E19Q]

>  <protein stability index>
3.31

$$$$
>  <Construct Sequence>
EILGCPMPDPNNYYHRRNEMTTTD [L7M]

>  <protein stability index>
3.59

$$$$
>  <Construct Sequence>
EILGCPLPDPANYYHRRNEMTTTD [N11A]

>  <protein stability index>
3.43

$$$$
>  <Construct Sequence>
EILGCPLPDPNNYYHRYNEMTTTD [R17Y]

>  <protein stability index>
2.85

$$$$
>  <Construct Sequence>
EILGCPLPDPNNYYHRRKEMTTTD [N18K]

>  <protein stability index>
3.57

$$$$
>  <Construct Sequence>
EILGCPLPDFNNYYHRRNEMTTTD [P10F]

>  <protein stability index>
3.18

$$$$
>  <Construct Sequence>
EILGCPLPDPNNYYHRRNEMTPTD [T22P]

>  <protein stability index>
3.22

$$$$
>  <Construct Sequence>
EILGCPLPDPNNYCHRRNEMTTTD [Y14C]

>  <protein stability index>
4.04

$$$$
>  <Construct Sequence>
EILGCPLPDPSNYYHRRNEMTTTD [N11S]

>  <protein stability index>
3.16

$$$$
>  <Construct Sequence>
EILGCPLEDPNNYYHRRNEMTTTD [P8E]

>  <protein stability index>
3.88

$$$$
>  <Construct Sequence>
EILGCPLPDPNNYKHRRNEMTTTD [Y14K]

>  <protein stability index>
3.88

$$$$
>  <Construct Sequence>
EILGCPLPPPNNYYHRRNEMTTTD [D9P]

>  <protein stability index>
3.26

$$$$
>  <Construct Sequence>
EILGCPLPDYNNYYHRRNEMTTTD [P10Y]

>  <protein stability index>
2.91

$$$$
>  <Construct Sequence>
EILGWPLPDPNNYYHRRNEMTTTD [C5W]

>  <protein stability index>
2.72

$$$$
>  <Construct Sequence>
EDLGCPLPDPNNYYHRRNEMTTTD [I2D]

>  <protein stability index>
4.86

$$$$
>  <Construct Sequence>
EILGCPLPDPNNYYHRGNEMTTTD [R17G]

>  <protein stability index>
3.79

$$$$
>  <Construct Sequence>
EILGCPLRDPNNYYHRRNEMTTTD [P8R]

>  <protein stability index>
3.56

$$$$
>  <Construct Sequence>
EILGCPLPDPNNYYHRINEMTTTD [R17I]

>  <protein stability index>
3.35

$$$$
>  <Construct Sequence>
EILGCPSPDPNNYYHRRNEMTTTD [L7S]

>  <protein stability index>
4.14

$$$$
>  <Construct Sequence>
EILGCPQPDPNNYYHRRNEMTTTD [L7Q]

>  <protein stability index>
3.68

$$$$
>  <Construct Sequence>
EILGCPHPDPNNYYHRRNEMTTTD [L7H]

>  <protein stability index>
3.88

$$$$
>  <Construct Sequence>
EILGQPLPDPNNYYHRRNEMTTTD [C5Q]

>  <protein stability index>
3.85

$$$$
>  <Construct Sequence>
EILGCPLPDPNNYYHRRCEMTTTD [N18C]

>  <protein stability index>
3.59

$$$$
>  <Construct Sequence>
EILGNPLPDPNNYYHRRNEMTTTD [C5N]

>  <protein stability index>
3.61

$$$$
>  <Construct Sequence>
EILGIPLPDPNNYYHRRNEMTTTD [C5I]

>  <protein stability index>
3.28

$$$$
>  <Construct Sequence>
EILGCPLPDPNNYYHRRNEMTTTW [D24W]

>  <protein stability index>
1.86

$$$$
>  <Construct Sequence>
EILGCPLPDPNNYTHRRNEMTTTD [Y14T]

>  <protein stability index>
4.29

$$$$
>  <Construct Sequence>
EILGCPLPDPFNYYHRRNEMTTTD [N11F]

>  <protein stability index>
2.96

$$$$
>  <Construct Sequence>
EILGCPKPDPNNYYHRRNEMTTTD [L7K]

>  <protein stability index>
3.88

$$$$
>  <Construct Sequence>
EILGCPLPDPNNYYMRRNEMTTTD [H15M]

>  <protein stability index>
3.23

$$$$
>  <Construct Sequence>
EILGCPLPDKNNYYHRRNEMTTTD [P10K]

>  <protein stability index>
3.41

$$$$
>  <Construct Sequence>
EILKCPLPDPNNYYHRRNEMTTTD [G4K]

>  <protein stability index>
3.39

$$$$
>  <Construct Sequence>
EILGCPLPDQNNYYHRRNEMTTTD [P10Q]

>  <protein stability index>
3.4

$$$$
>  <Construct Sequence>
EILGCPLPDVNNYYHRRNEMTTTD [P10V]

>  <protein stability index>
3.46

$$$$
>  <Construct Sequence>
EILGCPLPDPNNYYHRRNEMHTTD [T21H]

>  <protein stability index>
2.91

$$$$
>  <Construct Sequence>
EILGCPLPDPNNYYHRRNEMTTTV [D24V]

>  <protein stability index>
3.02

$$$$
